- test-system: T1, human insulin receptor (HIR) (human, UniProt P06213-2 28-1370, limits assumed)
- T1 construct: Also used for the WGA-purified recombinant human insulin receptor of the kinase assay
- T1 sequence (P06213 other isoform, or with tags, fused parts or gaps limits assumed): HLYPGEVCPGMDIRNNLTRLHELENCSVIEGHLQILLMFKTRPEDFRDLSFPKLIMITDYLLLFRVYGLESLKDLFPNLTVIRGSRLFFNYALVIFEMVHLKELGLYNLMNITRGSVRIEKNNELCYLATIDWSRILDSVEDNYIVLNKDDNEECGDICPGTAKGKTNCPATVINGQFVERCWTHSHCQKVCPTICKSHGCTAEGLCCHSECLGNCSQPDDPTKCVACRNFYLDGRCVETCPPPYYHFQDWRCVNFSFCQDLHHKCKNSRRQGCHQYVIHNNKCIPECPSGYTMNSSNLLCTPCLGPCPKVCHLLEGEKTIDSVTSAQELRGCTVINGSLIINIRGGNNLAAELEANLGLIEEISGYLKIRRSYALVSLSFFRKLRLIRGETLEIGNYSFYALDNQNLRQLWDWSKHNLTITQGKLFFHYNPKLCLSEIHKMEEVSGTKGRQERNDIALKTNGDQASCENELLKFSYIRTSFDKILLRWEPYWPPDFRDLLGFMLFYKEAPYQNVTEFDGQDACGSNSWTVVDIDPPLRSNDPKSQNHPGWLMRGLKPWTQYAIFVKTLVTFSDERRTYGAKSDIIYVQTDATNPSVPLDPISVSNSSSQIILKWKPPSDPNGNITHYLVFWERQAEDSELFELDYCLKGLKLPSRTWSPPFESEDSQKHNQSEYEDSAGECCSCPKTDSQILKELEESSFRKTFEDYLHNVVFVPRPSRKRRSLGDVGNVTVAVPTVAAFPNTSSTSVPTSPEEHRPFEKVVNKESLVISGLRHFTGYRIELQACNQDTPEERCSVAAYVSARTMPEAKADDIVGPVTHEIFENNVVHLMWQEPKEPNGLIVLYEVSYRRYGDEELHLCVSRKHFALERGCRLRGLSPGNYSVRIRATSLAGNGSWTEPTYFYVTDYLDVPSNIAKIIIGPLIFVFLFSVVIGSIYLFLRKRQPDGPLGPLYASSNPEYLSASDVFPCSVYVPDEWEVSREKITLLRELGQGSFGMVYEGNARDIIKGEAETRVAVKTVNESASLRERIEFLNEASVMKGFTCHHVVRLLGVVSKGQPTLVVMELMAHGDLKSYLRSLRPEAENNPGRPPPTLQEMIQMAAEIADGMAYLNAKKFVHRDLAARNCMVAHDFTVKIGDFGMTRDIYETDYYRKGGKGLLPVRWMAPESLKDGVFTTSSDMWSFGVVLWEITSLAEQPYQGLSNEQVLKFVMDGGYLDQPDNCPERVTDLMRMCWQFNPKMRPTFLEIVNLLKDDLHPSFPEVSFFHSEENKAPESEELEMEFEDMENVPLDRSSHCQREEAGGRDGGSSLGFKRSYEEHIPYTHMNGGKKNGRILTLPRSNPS
- procedure-details: 125I-insulin competition on purified HIR
pKd: −log10 of the molar value. No end group written: not given here.
Mark Condition not met for pKd values under 7, and Condition met for everything at or above.

-- ask Would you say S432 (not fully specified (bridges); cysteine pairing not given here; also: C-terminus of chain 2 linked to Lys16 of chain 1, bond at chain A 16 to a chain's C-terminus) peptide 1: ESFYDWFERQLGGGGK peptide 2: CEVYGRGCPS shows pKd at minimum 7?
-- reply Condition not met

-- ask Would you say S439 (not fully specified (bridges); cysteine pairing not given here; also: C-terminus of chain 2 linked to Lys16 of chain 1, bond at chain A 16 to a chain's C-terminus) peptide 1: ESFYDWFERQLGGGGK peptide 2: QEWAWVQCEVYGRGCPS shows pKd at minimum 7?
-- reply Condition met

-- ask Would you say S437 (not fully specified (bridges); cysteine pairing not given here; also: C-terminus of chain 2 linked to Lys16 of chain 1, bond at chain A 16 to a chain's C-terminus) peptide 1: ESFYDWFERQLGGGGK peptide 2: LDQEWAWVQCEVYGRGCPS shows pKd at minimum 7?
-- reply Condition met

Values were extracted from patent US20040023887A1.
